// provenance: ChEMBL document CHEMBL1136547

# Experiment Notes: Cmax in rat at 10 mg/kg
# Format: ADME, organism-based
# Design: dose 10 mg/kg
# Condition Context: in vivo
Parameter: Cmax (ng/mL)
One number for each entry, in ng/mL.

Query :: Would you mind telling me what Cmax value was observed for `CS(=O)(=O)c1ccc(-c2oc3ccc(F)cc3c(=O)c2-c2cccnc2)cc1` ?
Result :: 6900

---

# Tested On: Prostaglandin G/H synthase 1 (Mus musculus) (UniProt P22437)
# Sequence (P22437 whole entry): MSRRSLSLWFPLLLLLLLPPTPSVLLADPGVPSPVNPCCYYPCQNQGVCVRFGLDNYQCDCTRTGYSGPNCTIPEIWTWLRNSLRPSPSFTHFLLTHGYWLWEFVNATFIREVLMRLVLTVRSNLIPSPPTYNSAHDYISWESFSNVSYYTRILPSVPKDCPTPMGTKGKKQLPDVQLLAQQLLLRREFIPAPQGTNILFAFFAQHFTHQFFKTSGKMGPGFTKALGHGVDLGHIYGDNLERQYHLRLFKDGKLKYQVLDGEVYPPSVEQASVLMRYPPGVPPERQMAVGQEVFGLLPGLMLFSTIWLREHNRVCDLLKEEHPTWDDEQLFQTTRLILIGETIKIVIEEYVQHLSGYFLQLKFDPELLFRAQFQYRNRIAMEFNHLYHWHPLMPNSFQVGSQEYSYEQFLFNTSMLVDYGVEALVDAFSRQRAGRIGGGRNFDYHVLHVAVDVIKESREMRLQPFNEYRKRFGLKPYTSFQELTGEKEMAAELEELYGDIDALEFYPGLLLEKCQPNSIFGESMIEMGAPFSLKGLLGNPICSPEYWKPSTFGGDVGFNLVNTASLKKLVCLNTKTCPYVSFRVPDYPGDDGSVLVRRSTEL
# Experiment Notes: In vitro percentage inhibition against prostaglandin G/H synthase 1 using freshly harvested mouse peritoneal macrophages at 10 ug/mL concentration
Would you kindly list inhibition for each of these compounds?
Numbers only, in %.

- Compound String: "CS(=O)(=O)c1ccc(-c2oc3ccccc3c(=O)c2-c2cccnc2)cc1"
  inhibition, %: 13
- Compound String: "NS(=O)(=O)c1ccc(-c2oc3ccccc3c(=O)c2-c2ccccc2)cc1"
  inhibition, %: 61
- Compound String: "NS(=O)(=O)c1ccc(-c2oc3ccccc3c(=O)c2-c2ccc(F)cc2)cc1"
  inhibition, %: 67

Moving on to the next compound.
Query :: Suppose we examine the compound `CSc1ccc(-c2c(-c3ccc(S(N)(=O)=O)cc3)oc3ccccc3c2=O)cc1` ; what inhibition value has been reported?
Result :: 90
